Data origin, for the record: ChEMBL document CHEMBL3988442

Quick reference for Percent Effect among some compounds
- measuredOn: AMP-activated protein kinase, AMPK (Homo sapiens) (UniProt P54646+O43741+P54619+Q9UGJ0+Q9Y478+Q13131+Q9UGI9)
- testMethodNotes: AMP-dependent Kinase enzyme assay. An in vitro enzyme assay that detects ADP turnover that is directly proportional to AMPK activity. This uses naive AMPK that is activated during the assay with MK-8722
- Assay type: functional
- Design: scale not given: direction of the effect not stated beside the values
- conditionDetails: 30 µM
parameter: Percent Effect (%)

1) CC(C)(C)n1cc(C2=CCN(CCc3ccccc3)CC2)cn1	-7.35
2) COc1ccccc1C1SCC(=O)Nc2n[nH]cc21 (stereo not drawn)	16.6
3) COC(=O)N1C[C@H]2CC[C@@H]1CN(Cc1ccncc1)C2	0.146
4) CC1=N[C@@]2(CC[C@@H]3CNC[C@@H]32)C(=O)N1CC(C)C	-8.73
5) O=C(NC[C@]12COC[C@H]1CN(Cc1ccncc1)C2)c1ccco1	7.09
6) CC[C@H](N)Cn1nc(-c2cccs2)oc1=O	12
7) CCOCC(O)CN1CCN(C(=O)Cc2ccccc2Cl)CC1 (stereo not drawn)	8.88
8) O=C1[C@H]2CN(Cc3ccoc3)C[C@H]2CN1Cc1ccncc1	2.81
9) CSc1ccccc1C(=O)C1CCCN(Cc2cc(C(C)C)[nH]n2)C1 (stereo not drawn)	6.61
10) Cc1cc(N2CCN3CCCCC3C2)n2nc(C)c(C)c2n1 (stereo not drawn)	-4.39
11) CCc1cccc(NC(=O)CCN2CC=C(c3cnn(C)c3)CC2)c1	11.6
12) Cc1c(CC(=O)N2CCN(CC(F)(F)F)CC2)nnn1-c1ccccc1	-2.43
13) CO[C@@H]1CC[C@H]2[C@H]1OCCN2CC1CCOCC1	-2.63
14) CC(C)[C@@H]1CN(C(=O)C2(c3ccccc3)CCN(C)CC2)C[C@H]1N(C)C	-5.45
15) Cc1nnc(N2CCCC3(CN(Cc4ccncc4)CCO3)C2)o1 (stereo not drawn)	0.217
16) Cc1nc(C(=O)N[C@H]2COC[C@@H]2N2CCCCC2)cs1	4.08
17) O=C1[C@H]2CN(Cc3cccs3)C[C@H]2CN1c1cncnc1	1.57
18) COc1cc(CNCC(O)c2ccc(F)c(F)c2)cc2c1OCO2 (stereo not drawn)	1.05
19) CC(=O)Nc1ccc(-c2ccccc2CCN)cc1	3.13
20) Cc1cccc(CN2C[C@@H]3CCCO[C@@H]3[C@H](NS(C)(=O)=O)C2)n1	-6.76
21) O=C(c1ccsc1)N1CCN2C[C@H](OCc3cccnc3)C[C@H]2C1	8.09
22) O=C(c1cccnc1)N1C[C@@H]2CC[C@H](C1)N(Cc1ncc[nH]1)C2	9.09
23) Cc1ccc(CN2CCC3(CC2)C(=O)N(C)c2ccccc23)s1	-1.34
